system: ST8814; assay: relative IC50 (inflection point of fitted dose-response curve, CellTiter-Glo viability, 72 h; top asymptote may be below 50% inhibition); higher = less potent
Binary classification by relative IC50, with 1000 nM as an inclusive lower bound for met; all other cases are not met.

molecule	class
CC[C@H](CC#N)OC(=O)N[C@@H](C)c1cccc(NC(=O)Nc2ccc(-c3cnco3)c(OC)c2)c1	not met
CC(C)(C)c1nc(-c2cccc(NS(=O)(=O)c3c(F)cccc3F)c2F)c(-c2ccnc(N)n2)s1	not met
CN(C)C[C@@H]1CCn2cc(c3ccccc32)C2=C(C(=O)NC2=O)c2cn(c3ccccc23)CCO1	met
CNC(=O)c1ccccc1Sc1ccc2c(/C=C/c3ccccn3)n[nH]c2c1	met
Cc1c(CN2CCN(C(=O)[C@H](C)O)CC2)sc2c(N3CCOCC3)nc(-c3cnc(N)nc3)nc12	met
Cc1[nH]c2ccccc2c1CCNCc1ccc(/C=C/C(=O)NO)cc1	not met
CCN(CC)CCCC(C)Nc1ccnc2cc(Cl)ccc12 (stereo not drawn)	met

* * *

system: HS-PSS; assay: drug sensitivity score (DSS, CellTox-Green cytotoxicity, 72 h) (DSS (dimensionless)); higher = more cytotoxic; extreme values may be limits of the assay
Listing: drug sensitivity score of selected compounds
parameter_measured: drug sensitivity score

compound	target_of_assay	parameter_measured	quantitative_readout
CN1CCN(C2CCN(C(=O)Nc3cc(Oc4ccc(NC(=O)C5(C(=O)Nc6ccc(F)cc6)CC5)c(F)c4)ccn3)CC2)CC1 [Golvatinib] (max concentration tested 2500 nM)	HS-PSS	drug sensitivity score	0
CC(C)[C@@H](CS(=O)(=O)C(C)C)N1C(=O)[C@@](C)(CC(=O)O)C[C@H](c2cccc(Cl)c2)[C@H]1c1ccc(Cl)cc1 [AMG-232] (max concentration tested 1000 nM)	HS-PSS	drug sensitivity score	0
Nc1ccn([C@@H]2O[C@H](CO)[C@@H](O)[C@@H]2O)c(=O)n1 [Cytarabine] (max concentration tested 10000 nM)	HS-PSS	drug sensitivity score	5.69
C=CC(=O)Nc1cc(Nc2nccc(-c3cn(C)c4ccccc34)n2)c(OC)cc1N(C)CCN(C)C [Osimertinib] (max concentration tested 2500 nM)	HS-PSS	drug sensitivity score	0.95
FC(F)(F)c1ccc(CNc2ccc(Cc3c[nH]c4ncc(Cl)cc34)cn2)cn1 [Pexidartinib] (max concentration tested 10000 nM)	HS-PSS	drug sensitivity score	0

* * *

test system: HS-Sch-2; test: % inhibition of CellTiter-Glo viability at highest tested concentration (72 h), relative to DMSO and benzethonium chloride controls; higher = more inhibition
Respond with 1 for % inhibition values of 60% and above, -1 for values below.

compound	class
C/C=C1\NC(=O)[C@H]2CSSCC/C=C/[C@H](CC(=O)N[C@H](C(C)C)C(=O)N2)OC(=O)[C@H](C(C)C)NC1=O [Romidepsin] (max concentration tested 1000 nM)	1
Nc1ncn([C@@H]2O[C@H](CO)[C@@H](O)[C@H]2O)c(=O)n1 [Azacitidine] (max concentration tested 10000 nM)	-1
COc1cc2c(N3CCN(C(=O)Nc4ccc(OC(C)C)cc4)CC3)ncnc2cc1OCCCN1CCCCC1 [Tandutinib] (max concentration tested 1000 nM)	-1
CC[C@]1(O)C[C@@H]2CN(CCc3c([nH]c4ccccc34)[C@@](C(=O)OC)(c3cc4c(cc3OC)N(C)[C@H]3[C@@](O)(C(=O)OC)[C@H](OC(C)=O)[C@]5(CC)C=CCN6CC[C@]43[C@@H]65)C2)C1 [Vinblastine] (max concentration tested 1000 nM)	1
